System: main artery
METHOD DESCRIPTION: Analysis for fatty streak in the main artery of rabbits
Assay type: in vivo, rabbit (New Zealand White)
TEST PARAMETERS: proportion of total arterial area, Oil Red O, rabbits, 8 weeks; Control 80 ± 8
RECORDED ENDPOINT: Fatty streak (%)
Report as a plain number; the unit % is understood.

Record excerpt, results attached:
MOLECULE: O=C(O)/C=C/c1ccc(O)c(O)c1 [3,4-dihydroxycinnamic acid]
Fatty streak [%]: 13
--
MOLECULE: O=C(O)/C=C/c1ccc(O)cc1 [4-Hydroxycinnamic acid, 4-hydroxycinnamic acid]
Fatty streak [%]: 24
--
MOLECULE: O=C(O)CCc1ccc(O)c(O)c1 [3,4-dihydroxyhydrocinnamic acid]
Fatty streak [%]: 16

We next turn to a different molecule, shown below.
Field request: Fatty streak | item: CC[C@H](C)C(=O)O[C@H]1C[C@@H](C)C=C2C=C[C@H](C)[C@H](CC[C@@H]3C[C@@H](O)CC(=O)O3)[C@H]21 [Lovastatin, reference compound]
15

###

System: liver
METHOD DESCRIPTION: Prevention of hepatic diseases: microscopic fatty liver grading in rabbits
Type: in vivo, rabbit (New Zealand White)
TEST PARAMETERS: grades 1+(0-25%), 2+(26-50%), 3+(51-75), 4+(76-100%); rabbits, 8 weeks; Control 3.2 ± 0.3
Quick reference for fatty liver grade (1+ to 4+) among some compounds
// return a plain number; no unit text

COMPOUND: CC[C@H](C)C(=O)O[C@H]1C[C@@H](C)C=C2C=C[C@H](C)[C@H](CC[C@@H]3C[C@@H](O)CC(=O)O3)[C@H]21 [Lovastatin, reference compound]
fatty liver grade (1+ to 4+): 3.4

Recorded fatty liver grade (1+ to 4+) of O=C(O)/C=C/c1ccc(O)cc1 [4-Hydroxycinnamic acid, 4-hydroxycinnamic acid] , please.
2.7

// query fatty liver grade (1+ to 4+) value for entry O=C(O)/C=C/c1ccc(O)c(O)c1 [3,4-dihydroxycinnamic acid]
2.6

What does the record list as fatty liver grade (1+ to 4+) for O=C(O)CCc1ccc(O)c(O)c1 [3,4-dihydroxyhydrocinnamic acid] ?
2.6
